Entries and their CLint scaled at 0.75 h, 1 µM
Assay: in vitro
Conditions: CD-1, mouse, liver microsomes
Express it in mL/min/kg; write the number only.

Returns the measured CLint scaled at 0.75 h, 1 µM for the input compound. Input: O=C(N[C@@H](Cn1ccnc1)c1ccc(Cl)cc1Cl)c1ccc(-c2nnc(-c3ccc(OCC(F)(F)F)cc3F)o2)cc1 88

Returns the measured CLint scaled at 0.75 h, 1 µM for the input compound. Input: O=C(N[C@@H](Cn1ccnc1)c1ccc(Cl)cc1Cl)c1ccc(-c2nnc(-c3cc(F)cc(-c4ccccn4)c3)o2)cc1 55

Returns the measured CLint scaled at 0.75 h, 1 µM for the input compound. Input: O=C(N[C@@H](Cn1ccnc1)c1ccc(Cl)cc1Cl)c1ccc(-c2nnc(-c3cc(-c4ccccn4)ccc3F)o2)cc1 238

Returns the measured CLint scaled at 0.75 h, 1 µM for the input compound. Input: O=C(N[C@@H](Cn1ccnc1)c1ccc(Cl)cc1Cl)c1ccc(-c2nnc(-c3ccc(F)c(F)c3)o2)cc1 55

* * *

Entries and their inhibition
Target: Lanosterol 14-alpha demethylase (Aspergillus) (UniProt B8NUK6+Q9P8R0+G4WW85)
Test: Inhibition of Aspergillus fumigatus CYP51 assessed as reduction in [3-3H]eburicol 14alpha-demethylation at 0.75 uM preincubated for 60 secs followed by NADPH addition measured after 60 mins by RP-HPLC analysis relative to control
Express it in %; write the number only.

Please review the following examples before continuing.
O=C(N[C@@H](Cn1ccnc1)c1ccc(Cl)cc1Cl)c1ccc(-c2nnc(-c3ccc(OCC(F)(F)F)cc3F)o2)cc1    82
O=C(N[C@@H](Cn1ccnc1)c1ccc(Cl)cc1Cl)c1ccc(-c2nnc(-c3ccc(-c4ccccn4)cc3F)o2)cc1    26
O=C(N[C@@H](Cn1ccnc1)c1ccc(Cl)cc1Cl)c1ccc(-c2nnc(-c3ccc(N4CCOCC4)cc3)o2)cc1    3
O=C(N[C@@H](Cn1ccnc1)c1ccc(Cl)cc1Cl)c1ccc(-c2nnc(-c3cccc(-c4ccccn4)c3)o2)cc1    34
O=C(N[C@@H](Cn1ccnc1)c1ccc(Cl)cc1Cl)c1ccc(-c2nnc(-c3cc(F)cc(-c4ncncc4F)c3)o2)cc1    57
O=C(N[C@@H](Cn1ccnc1)c1ccc(Cl)cc1Cl)c1ccc(-c2nnc(-c3ccc(-c4ccccn4)cc3)o2)cc1    23
O=C(N[C@@H](Cn1ccnc1)c1ccc(Cl)cc1Cl)c1ccc(-c2nnc(-c3ccccc3)o2)cc1    24
O=C(N[C@@H](Cn1ccnc1)c1ccc(Cl)cc1Cl)c1ccc(-c2nnc(-c3cccc(N4CCOCC4)c3)o2)cc1    15

Returns the measured inhibition for the input molecule. Input: O=C(N[C@@H](Cn1ccnc1)c1ccc(Cl)cc1Cl)c1ccc(-c2nnc(-c3ccc(Cl)c(Cl)c3)o2)cc1 55

Returns the measured inhibition for the input molecule. Input: O=C(N[C@@H](Cn1ccnc1)c1ccc(Cl)cc1Cl)c1ccc(-c2nnc(-c3cc(-c4ccccn4)ccc3F)o2)cc1 24

* * *

Experiment: Lipophilicity, log P of the compound
Type: physicochemical
Details: octanol/water
measurement name: logP

O=C(N[C@@H](Cn1ccnc1)c1ccc(Cl)cc1Cl)c1ccc(-c2nnc(-c3cc(F)cc(-c4ncncc4F)c3)o2)cc1    5.05

Returns the measured logP for the input molecule. Input: O=C(N[C@@H](Cn1ccnc1)c1ccc(Cl)cc1Cl)c1ccc(-c2nnc(-c3ccccc3)o2)cc1 4.57

Returns the measured logP for the input molecule. Input: O=C(N[C@@H](Cn1ccnc1)c1ccc(Cl)cc1Cl)c1ccc(-c2nnc(-c3ccc(-c4ccccn4)cc3F)o2)cc1 5.49

Returns the measured logP for the input molecule. Input: O=C(N[C@@H](Cn1ccnc1)c1ccc(Cl)cc1Cl)c1ccc(-c2nnc(-c3ccc(F)c(F)c3)o2)cc1 4.88
